Known T/C of a selection of molecules
Test system: L1210 leukemia ip in BDF1 mice, survival T/C
protocol.summary: NCI In Vivo Anticancer Drug Screen. Data for tumor model L1210 Leukemia (intraperitoneal) in B6D2F1 (BDF1) mice
run.parameters: endpoint: mean survival time; dose: 100.0 mg/kg/injection; schedule: Q04DX003 (ip); vehicle: Klucel (hydroxypropylcellulose) (HPC); higher = longer survival
Toxic doses and inconclusive results are not listed.

Field: example entries. Status: answers known.
INSERT INTO results (molecule, target_of_assay, result) VALUES
  ('COP(=O)(NC12CC3CC(CC(C3)C1)C2)OC', 'L1210 leukemia ip in BDF1 mice, survival T/C', '97 % of control'),
  ('O=[N+]([O-])c1ccc2nc(-c3ccccc3)c(-c3ccccc3)nc2c1', 'L1210 leukemia ip in BDF1 mice, survival T/C', '98 % of control'),
  ('OC1CCCC2CCCNC12 (stereo not given) (tested in a mixture with another compound)', 'L1210 leukemia ip in BDF1 mice, survival T/C', '93 % of control'),
  ('COc1ccc2c(c1)C(=O)C1CC3(CCC21)OCCO3 (stereo not given)', 'L1210 leukemia ip in BDF1 mice, survival T/C', '109 % of control');

What does the data say about its T/C? Entry: `COc1ccccc1NC(=O)Nc1c(C)cc(C)cc1C` 95 % of control
